Origin of values: patent US20210246166A1

Below: a set of entries, each annotated with reported rat MASP2 IC50.
- target_or_system: recombinant rat MASP2 active protease (amino acids 296-685, C-terminal His Tag) (rat, UniProt Q9JJS8 296-685)
- Sequence (Q9JJS8 other isoform, or with tags, fused parts or gaps limits assumed): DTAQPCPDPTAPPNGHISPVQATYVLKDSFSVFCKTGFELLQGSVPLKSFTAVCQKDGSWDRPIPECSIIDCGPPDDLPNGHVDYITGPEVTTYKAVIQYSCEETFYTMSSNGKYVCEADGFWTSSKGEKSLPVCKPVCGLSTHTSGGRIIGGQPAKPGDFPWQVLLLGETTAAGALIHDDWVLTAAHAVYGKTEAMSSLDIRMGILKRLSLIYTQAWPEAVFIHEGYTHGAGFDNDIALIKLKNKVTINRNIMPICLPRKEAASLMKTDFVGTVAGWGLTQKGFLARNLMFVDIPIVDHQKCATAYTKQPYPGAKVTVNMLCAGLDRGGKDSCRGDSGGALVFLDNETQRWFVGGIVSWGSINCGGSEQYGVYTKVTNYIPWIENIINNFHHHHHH
- assay_summary: cell-based or functional assay
Numbered stars: 1 amine (or outer) side, 2 acyl side, 3 side chain; on linkers, the order of the positions; unused ones are H or OH. Bridge positions count the residues as written; N and C are the ends. Square brackets hold non-standard residues; d marks the D form. Primed or numbered codes have the meaning given here. Ends that are not written are not given here. X13 = (2S)‑2‑amino‑3‑(1-methylcyclopropyl)propanoic acid, CC1(C[C@H](N[*:1])C(=O)[*:2])CC1; TTDS(3) = 1,13-Diamino-4,7,10-trioxatridecan-succinamic acid; Oic = O=C(O)[C@@H]1C[C@@H]2CCCC[C@@H]2N1; Pro‑D2 = L-proline (3,4-2H), deuterated; PEG7 = NCCOCCOCCOCCOCCOCCOCCOCCC(=O)O; tBuAla = CC(C)(C)C[C@H](N)C(=O)O; Pen = CC(C)(S)[C@H](N)C(=O)O; 4Amb = NCc1ccc(C(=O)O)cc1; NMeC = CN[C@@H](CS)C(=O)O; Sar = CNCC(=O)O
Could you kindly put the unit after your number?

Below, 5 binders whose answers are already recorded.
- binder: "[Sar]ICSRSLP[Oic]I[Pen]I[5‑Azaspiro(2.4)heptane‑1‑carboxylic acid]-OH (disulfide 3-11) [Example 194: ((N-Me)G)-IC+SRSLP-(Oic)-I-(Pen)+I-((5-Azaspiro[2.4]heptane-1-carboxylic acid)-OH]"
  measurement: "42 nM"
- binder: "[Sar]ICSRS[tBuAla]PPI[Pen]IP-NH2 (disulfide 3-11; N-terminus assumed; SMILES CC[C@H](C)[C@H](NC(=O)CNC)C(=O)N[C@H]1CSSC(C)(C)[C@@H](C(=O)N[C@H](C(=O)N2CCC[C@H]2C(N)=O)[C@@H](C)CC)NC(=O)[C@H]([C@@H](C)CC)NC(=O)[C@@H]2CCCN2C(=O)[C@@H]2CCCN2C(=O)[C@H](CC(C)(C)C)NC(=O)[C@H](CO)NC(=O)[C@H](CCCNC(=N)N)NC(=O)[C@H](CO)NC1=O) [Example 156: ((N-Me)G)-IC+SRS-((tBu)A)-PPI-(Pen)+IP-NH2]"
  measurement: "16 nM"
- binder: "AICSRSL[Pro‑D2][Oic]I[Pen]IPD-OH (disulfide 3-11) [Example 142: AIC+SRSL-(Pro-D2)-(Oic)-I-(Pen)+IPD-OH]"
  measurement: "17.1 nM"
- binder: "[Sar]ICSRS[X13]PPI[Pen]IP-NH2 (disulfide 3-11; N-terminus assumed; SMILES CC[C@H](C)[C@H](NC(=O)CNC)C(=O)N[C@H]1CSSC(C)(C)[C@@H](C(=O)N[C@H](C(=O)N2CCC[C@H]2C(N)=O)[C@@H](C)CC)NC(=O)[C@H]([C@@H](C)CC)NC(=O)[C@@H]2CCCN2C(=O)[C@@H]2CCCN2C(=O)[C@H](CC2(C)CC2)NC(=O)[C@H](CO)NC(=O)[C@H](CCCNC(=N)N)NC(=O)[C@H](CO)NC1=O) [Example 197: ((N-Me)G)-IC+SRS-((2S)-2-amino-3-(1-methylcyclopropyl)propanoic acid)-PPI-(Pen)+IP-NH2]"
  measurement: "15 nM"
- binder: "[Sar]ICSRS[tBuAla]PPI[Pen]IP-{TTDS(3)-NH2} (disulfide 3-11) [Example 85: ((N-Me)G)-IC+SRS-((tBu)A)-PPI-(Pen)+IP-(TTDS)-NH2]"
  measurement: "37 nM"

Consider [4Amb]ICSRS[tBuAla]PPI[Pen]IPD-NH2 (disulfide 3-11; N-terminus assumed; SMILES CC[C@H](C)[C@H](NC(=O)c1ccc(CN)cc1)C(=O)N[C@H]1CSSC(C)(C)[C@@H](C(=O)N[C@H](C(=O)N2CCC[C@H]2C(=O)N[C@@H](CC(=O)O)C(N)=O)[C@@H](C)CC)NC(=O)[C@H]([C@@H](C)CC)NC(=O)[C@@H]2CCCN2C(=O)[C@@H]2CCCN2C(=O)[C@H](CC(C)(C)C)NC(=O)[C@H](CO)NC(=O)[C@H](CCCNC(=N)N)NC(=O)[C@H](CO)NC1=O) [Example 187: (4-(Aminomethyl)benzoic acid)-IC+SRS-((tBu)A)-PPI-(Pen)+IPD-NH2] . Its measured rat MASP2 IC50 is 3.7 nM

Consider [Sar]ICSRSLP[Oic]I[Pen]IP[PEG7]-NH2 (disulfide 3-11; N-terminus assumed; SMILES CC[C@H](C)[C@H](NC(=O)CNC)C(=O)N[C@H]1CSSC(C)(C)[C@@H](C(=O)N[C@H](C(=O)N2CCC[C@H]2C(=O)NCCOCCOCCOCCOCCOCCOCCOCCC(N)=O)[C@@H](C)CC)NC(=O)[C@H]([C@@H](C)CC)NC(=O)[C@@H]2C[C@@H]3CCCC[C@@H]3N2C(=O)[C@@H]2CCCN2C(=O)[C@H](CC(C)C)NC(=O)[C@H](CO)NC(=O)[C@H](CCCNC(=N)N)NC(=O)[C@H](CO)NC1=O) [Example 150: ((N-Me)G)-IC+SRSLP-(Oic)-I-(Pen)+IP-(PEG7(25 atoms))-NH2] . Its measured rat MASP2 IC50 is 53 nM

Consider [Sar]ICSRSLPPI[NMeC]IPD-OH (disulfide 3-11; N-terminus assumed; SMILES CC[C@H](C)[C@H](NC(=O)CNC)C(=O)N[C@H]1CSSC[C@@H](C(=O)N[C@H](C(=O)N2CCC[C@H]2C(=O)N[C@@H](CC(=O)O)C(=O)O)[C@@H](C)CC)N(C)C(=O)[C@H]([C@@H](C)CC)NC(=O)[C@@H]2CCCN2C(=O)[C@@H]2CCCN2C(=O)[C@H](CC(C)C)NC(=O)[C@H](CO)NC(=O)[C@H](CCCNC(=N)N)NC(=O)[C@H](CO)NC1=O) [Example 232: ((N-Me)G)-IC+SRSLPPI-((N-Me)C)+IPD-OH] . Its measured rat MASP2 IC50 is 125 nM

Consider XICSRS[tBuAla]PPI[Pen]IPD-OH (disulfide 3-11; not fully specified (residue 1); printed as (beta-P)-IC + SRS-((tBu)A)-PPI-(Pen) + IPD-OH) [Example 480: (beta-P)-IC+SRS-((tBu)A)-PPI-(Pen)+IPD-OH] . Its measured rat MASP2 IC50 is 41 nM

Consider [Sar]ICSRSLPPICIPD-OH (disulfide 3-11; N-terminus assumed; SMILES CC[C@H](C)[C@H](NC(=O)CNC)C(=O)N[C@H]1CSSC[C@@H](C(=O)N[C@H](C(=O)N2CCC[C@H]2C(=O)N[C@@H](CC(=O)O)C(=O)O)[C@@H](C)CC)NC(=O)[C@H]([C@@H](C)CC)NC(=O)[C@@H]2CCCN2C(=O)[C@@H]2CCCN2C(=O)[C@H](CC(C)C)NC(=O)[C@H](CO)NC(=O)[C@H](CCCNC(=N)N)NC(=O)[C@H](CO)NC1=O) [Example 281: ((N-Me)G)-IC+SRSLPPIC+IPD-OH] . Its measured rat MASP2 IC50 is 308 nM
